- assayed target: T1, Human BCMA (human, UniProt Q02223 1-54, limits assumed)
- T1 construct: Soluble analyte in SPR; construct not described; also called huBCMA; B-cell maturation antigen
- T1 sequence (looked up): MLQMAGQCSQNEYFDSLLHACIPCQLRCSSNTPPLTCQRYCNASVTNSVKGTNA
- measurement notes: SPR, IgG immobilised, 37 C
Give koff for every item shown.
Give bare numbers, in s⁻¹.

Answered examples (4):
binder	koff, s⁻¹
L3.PY/L3.KY/H2.LT (antibody, V domains shown, IgG) VH: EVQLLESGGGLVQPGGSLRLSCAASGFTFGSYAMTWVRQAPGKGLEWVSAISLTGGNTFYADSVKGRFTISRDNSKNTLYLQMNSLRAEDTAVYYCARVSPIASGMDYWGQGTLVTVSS VL: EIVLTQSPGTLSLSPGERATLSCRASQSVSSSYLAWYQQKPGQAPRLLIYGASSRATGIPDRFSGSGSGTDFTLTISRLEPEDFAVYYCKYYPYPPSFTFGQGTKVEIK	0.000906
L3.PY/L1.FF/H2.YQ (antibody, V domains shown, IgG) VH: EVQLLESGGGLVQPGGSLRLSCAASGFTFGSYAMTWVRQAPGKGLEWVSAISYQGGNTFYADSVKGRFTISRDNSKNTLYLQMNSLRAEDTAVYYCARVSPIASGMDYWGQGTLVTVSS VL: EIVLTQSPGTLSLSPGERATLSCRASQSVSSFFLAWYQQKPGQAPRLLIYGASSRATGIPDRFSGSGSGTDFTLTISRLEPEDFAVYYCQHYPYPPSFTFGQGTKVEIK	0.00152
L3.PY/P6E01 (antibody, V domains shown, IgG) VH: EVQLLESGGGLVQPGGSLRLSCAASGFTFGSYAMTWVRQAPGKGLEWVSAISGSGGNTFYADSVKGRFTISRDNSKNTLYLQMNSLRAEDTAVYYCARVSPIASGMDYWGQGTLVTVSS VL: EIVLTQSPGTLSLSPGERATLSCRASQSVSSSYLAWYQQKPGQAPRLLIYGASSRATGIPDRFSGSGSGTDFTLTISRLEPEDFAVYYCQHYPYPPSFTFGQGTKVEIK	0.00196
L3.PY/L1.FF/H3.TAQ (antibody, V domains shown, IgG) VH: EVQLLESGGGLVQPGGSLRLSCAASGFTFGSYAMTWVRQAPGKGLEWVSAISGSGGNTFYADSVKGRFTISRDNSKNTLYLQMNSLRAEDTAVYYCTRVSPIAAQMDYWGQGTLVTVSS VL: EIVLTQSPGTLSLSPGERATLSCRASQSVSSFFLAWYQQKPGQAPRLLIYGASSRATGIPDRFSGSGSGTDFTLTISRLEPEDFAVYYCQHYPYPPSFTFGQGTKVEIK	0.00189

Next up:
(Q) Looking for the measured koff of L3.PY/L1.FF/H2.LT (antibody, V domains shown, IgG) VH: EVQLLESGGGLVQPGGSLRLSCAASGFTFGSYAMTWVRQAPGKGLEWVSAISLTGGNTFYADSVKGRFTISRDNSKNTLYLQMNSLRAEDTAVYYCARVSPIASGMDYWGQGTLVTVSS VL: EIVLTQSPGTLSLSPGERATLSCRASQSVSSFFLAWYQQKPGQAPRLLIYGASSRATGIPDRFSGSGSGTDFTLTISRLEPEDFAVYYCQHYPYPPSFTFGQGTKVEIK , can you help?
(A) 0.00167
